Taken from ChEMBL document CHEMBL5506053.

Entries and their fold change (FC)
- TARGET_OF_ASSAY: Neuronal acetylcholine receptor; alpha4/beta2 (Homo sapiens) (UniProt P17787+P43681)
- PROCEDURE_DETAILS: Inhibition of acetylcholine induced response in human alpha4beta2 nAChR expressed in xenopus laevis oocytes assessed as fold change at 30 uM preincubated with 3 uM acetylcholine followed by compound administration for 12 sec and measured 181 sec post washout by two-electrode voltage-clamp electrophysiology method relative to acetylcholine alone
- Type: cell-based
- CONDITION_NOTES: Oocyte

STRUCTURE	fold change (FC)
CC[N+]1(CC)CCN(c2ccc(-n3cccc3)cc2)CC1	0.709
CC[N+]1(CC)CCN(c2ccc(NC(=O)c3cccc(C)n3)cc2)CC1	1.07
CC[N+]1(C)CCN(c2ccc(C(=O)Nc3cccc(C)n3)cc2)CC1.[I-]	0.858
CC[N+]1(CC)CCN(c2ccc(C(=O)N3CCCC3)cc2)CC1	0.919
CC[N+]1(CC)CCN(c2ccc(C(=O)Nc3ccccn3)cc2)CC1	0.697
CC[N+]1(C)CCN(c2ccc(NC(=O)c3cccc(C)n3)cc2)CC1.[I-]	1.05
